# Tested on: cytoplasmic domain of VraS (VraS-C) (Staphylococcus aureus, UniProt Q99SZ7)
# Sequence (Q99SZ7 70-347): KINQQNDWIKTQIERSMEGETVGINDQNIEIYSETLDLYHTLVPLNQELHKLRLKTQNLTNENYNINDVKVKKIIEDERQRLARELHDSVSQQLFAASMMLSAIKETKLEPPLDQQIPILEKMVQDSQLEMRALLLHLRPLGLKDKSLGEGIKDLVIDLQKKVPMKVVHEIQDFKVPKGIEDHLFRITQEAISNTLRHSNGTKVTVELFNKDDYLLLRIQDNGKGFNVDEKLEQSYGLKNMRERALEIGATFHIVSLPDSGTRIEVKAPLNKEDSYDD
# Assay explanation: biochemical
# Type: binding
# Condition details: SPR
Metric: binding to VraS-C

Worked cases, answers included:
• O=C(Nc1nnc(-c2ccccc2Cl)o1)c1nc2ccccc2s1 = bound
• Cc1cc(/C=C/c2ccc3cc(N(C)C)ccc3[n+]2C)c(C)n1-c1ccccc1 = binds
• O=C(Nc1nnc(-c2ccc(Br)cc2)o1)c1ccc(Cl)s1 = bound
• CSc1cccc(-c2nnc(NC(=O)c3nc4ccccc4s3)o2)c1 = Binds
• O=C(Nc1nnc(-c2cc(Cl)sc2Cl)o1)c1nc2ccccc2s1 = bound

Recorded binding to VraS-C of O=C(Nc1nnc(-c2ccccc2Cl)o1)c1cccc(C(F)(F)F)c1 , please.
bound
